Test system: Jurkat E6.1
Assay: Anticancer activity against human Jurkat E6-1 cells assessed as inhibition of cell growth after 72 hrs by MTT or MTS assay
Assay type: functional, cell-based
Conditions: Jurkat E6.1, 72 h
experimentalEndpoint: pIC50
On this scale, pIC50 is minus log10 of a concentration expressed in M (mol/L).

Record excerpt, results attached:
{"cpdSmiles": "CCOC(=O)N1CCN(/[N+]([O-])=N/Oc2ccc([N+](=O)[O-])cc2[N+](=O)[O-])CC1", "pIC50": 6.04}
{"cpdSmiles": "O=[N+]([O-])c1ccc(O/N=[N+](\\[O-])N2CCN(CCN3CCN(/[N+]([O-])=N/Oc4ccc([N+](=O)[O-])cc4[N+](=O)[O-])CC3)CC2)c([N+](=O)[O-])c1", "pIC50": 5.43}

Please look at the following compound next.
What value of measured pIC50 is listed for O=[N+]([O-])c1ccc(O/N=[N+](\[O-])N2CCN(CCCN3CCN(/[N+]([O-])=N/Oc4ccc([N+](=O)[O-])cc4[N+](=O)[O-])CC3)CC2)c([N+](=O)[O-])c1 ? 5.39
